All values here come from PubChem BioAssay (NCI).

test system: NCI/ADR-RES ovarian; assay: NCI-60 one-dose screen, 48 h (100 = growth as untreated, 0 = no growth, -100 = all killed); settings: 10 µM unless noted
About 83,000 compounds went through this panel and 20% of them were active in at least one assay; those are over-represented in the sample as a whole.
Value Kind: growth (%)
One number for each entry, in %.

These recorded examples may help you get a feel for the data.
>  <Molecule>
COC(=O)[C@H](Cc1ccccc1)NC(=O)c1csc([C@@H](C[C@H](C(C)C)N(C)C(=O)[C@@H](NC(=O)[C@H]2CCCN2C)C2CC2)OC(C)=O)n1

>  <Unit Symbol>
%

>  <growth>
53.3

$$$$
>  <Molecule>
COc1cc2c(cc1OCc1ccccc1)C(CC(C)C)=[N+](C)CC2

>  <Unit Symbol>
%

>  <growth>
101

$$$$

For every record below, what is its growth?
1. CC1=C(CNO)C2=C(C)C3(CC3)[C@@](C)(O)C(=O)C2=C1
2. Cn1cc(C=O)c2nccnc21
3. COC(=O)[C@@H](C)C[C@H](Cc1ccccc1)NC(=O)c1csc([C@@H](C[C@H](C(C)C)N(C)C(=O)[C@@H](NC(=O)[C@H]2CCCCN2C)C(C)C)OC(C)=O)n1
4. O=C1CC2(CC3(Cl)C(Cl)=C(Cl)C2(Cl)C3(Cl)Cl)C(=O)O1 (stereo not drawn)
5. O=c1[nH]c2ccc([N+](=O)[O-])cc2c(=O)o1

1: 29.7; 2: 105; 3: 5.63; 4: 101; 5: 101

Lab note: need growth with NCI/ADR-RES ovarian for entry CCOC(=O)[C@@H](C)C[C@H](Cc1ccccc1)NC(=O)c1nc([C@@H](C[C@H](C(C)C)N(C)C(=O)[C@@H](NC(=O)[C@H]2CCCCN2C)C(C)C)OC(C)=O)sc1CCOCc1ccccc1 , please look it up.
1.07

---

I'd appreciate it if you could supply growth values for the items below.
system: BT-549 breast; assay: NCI-60 one-dose screen, 48 h (100 = growth as untreated, 0 = no growth, -100 = all killed); conditions: 10 µM unless noted
Compounds without any hit were thinned out: in the full panel of roughly 83,000, 20% have a hit.
Numbers only, in %.

Worked set:
>  <Compound>
CC(=O)[O][Hg][O]C(C)=O

>  <Value Kind>
growth

>  <Reading>
103

$$$$
>  <Compound>
C[C@]12CC[C@H]3[C@@H](C[C@@H]4SC(Nc5ccccc5)=N[C@@]45CC(O)CC[C@]35C)[C@@H]1CCC2O (some centres undefined)

>  <Value Kind>
growth

>  <Reading>
19.2

$$$$
>  <Compound>
C[C@]12C[C@@H](CO)[C@H](O)C[C@@H]1CC[C@@H]1[C@@H]2CC[C@]2(C)[C@@H](O)CC[C@@H]12

>  <Value Kind>
growth

>  <Reading>
78.9

$$$$
>  <Compound>
COc1ccc(C2=CC(c3ccc(OC)c(OC)c3)c3c(c4ccccc4oc3=O)O2)cc1OC (centres undefined)

>  <Value Kind>
growth

>  <Reading>
-4.49

$$$$
>  <Compound>
Cc1c(NS(=O)(=O)c2ccccc2)ccc([N+](=O)[O-])c1Cl

>  <Value Kind>
growth

>  <Reading>
77.7

$$$$
>  <Compound>
ClC1=C(Cl)C(Cl)(C2(Cl)C(Cl)=C(Cl)C(Cl)=C2Cl)C(Cl)=C1Cl

>  <Value Kind>
growth

>  <Reading>
-12.3

$$$$
>  <Compound>
C[CH2][Sn]([Cl])([Cl])[CH2]C.Oc1ccccc1C=NCCN=Cc1ccccc1O

>  <Value Kind>
growth

>  <Reading>
117

$$$$
>  <Compound>
CC(=O)O[C@H]1C(=O)[C@@]2(C)[C@H]([C@H](OC(=O)c3ccccc3)[C@]3(O)C[C@H](OC(=O)[C@H](OC(=O)OC[C@H]4COC(C)(C)O4)[C@@H](NC(=O)c4ccccc4)c4ccccc4)C(C)=C1C3(C)C)[C@]1(OC(C)=O)CO[C@@H]1C[C@@H]2O

>  <Value Kind>
growth

>  <Reading>
9.68

$$$$
>  <Compound>
[Cl][Hg][c]1cc(Br)cc(Br)c1

>  <Value Kind>
growth

>  <Reading>
48

$$$$
>  <Compound>
CCOC(=S)S[C@H]1C[C@@H]2[C@H](CC[C@]3(C)C(=O)CC[C@@H]23)[C@@]2(C)CCC(=O)C=C12

>  <Value Kind>
growth

>  <Reading>
105

$$$$

// each compound listed below needs its growth
1. CCC1CN1CCCCN1CC1CC (centres undefined)
2. COC1CC2c3ccccc3C1C(C)=[N+]2C (centres undefined)
3. [Cl][Hg][c]1cc[c]([Hg][Cl])o1
4. O=C1C(N2CC2)=C(N2CC2)C(=O)C(N2CC2)=C1N1CC1

[103, 87.4, 14, -34.2]

// input: 5 compounds below; output: growth for each
1. Brc1ccc2c(c1)c(-c1nc(-c3c[nH]c4ncccc34)cs1)cn2CCN1CCCCC1
2. Cc1cc(N(CCCl)CCCl)ccc1C=Nc1cccnc1
3. COC(=O)[C@@]1(C)CC[C@]2(C)CC[C@]3(C)C4=CC=C5C(=CC(=O)C(O)=C5C)[C@]4(C)CC[C@@]3(C)[C@@H]2C1
4. O=C(CC1(O)C(=O)N(Cc2ccccc2)c2ccccc21)c1ccc(C(=O)NCC2CCC3(CC2)OOC2(CCCCC2)OO3)cc1 (centres undefined)
5. COC(=O)[C@@]1(O)C[C@H]2O[C@]1(C)n1c3ccccc3c3c4c(c5c6ccccc6n2c5c31)C(=O)NC4

1: 89; 2: 86.9; 3: -95.2; 4: -31.1; 5: -73.9

---

system: U251 CNS; experiment: NCI-60 one-dose screen, 48 h (100 = growth as untreated, 0 = no growth, -100 = all killed); conditions: 10 µM unless noted
Compounds without any hit were thinned out: in the full panel of roughly 83,000, 20% have a hit.
Value Kind: growth (%)
Answers are plain numbers, in %.

Past entries and their recorded results:
>  <Compound>
Cc1cc(N(CCCl)CCCl)ccc1/C=N\NC(=O)c1ccncc1

>  <Assay Target>
U251 CNS

>  <growth / %>
90.5

$$$$
>  <Compound>
CCC1CN1CCCCN1CC1CC (stereo not given)

>  <Assay Target>
U251 CNS

>  <growth / %>
99

$$$$
>  <Compound>
COC(=O)[C@@H](NC(=O)c1cn(CCC2CCCCC2)c2ccccc12)C(C)(C)C

>  <Assay Target>
U251 CNS

>  <growth / %>
72.6

$$$$
>  <Compound>
O=C(O)C(Cl)(Cl)C(F)(F)F

>  <Assay Target>
U251 CNS

>  <growth / %>
108

$$$$

Please go through the list and note growth for each compound.
1. CN(C)C(=O)Oc1ccccc1-c1ccccc1
2. Clc1cccc(Cl)c1Cl
3. COC(=O)[C@H](Cc1ccccc1)NC(=O)c1csc([C@@H](C[C@H](C(C)C)N(C)C(=O)[C@@H](NC(=O)[C@H]2CCCN2C)C2CC2)OC(C)=O)n1
4. CC1=C([Te]c2ccc(O)cc2)C(=O)c2ccccc2C1=O

1. 101
2. 98.4
3. 13.3
4. 10

---

test system: SR leukemia; experiment: NCI-60 one-dose screen, 48 h; conditions: 10 µM unless noted
About 83,000 compounds went through this panel and 20% of them were active in at least one assay; those are over-represented in the sample as a whole. Calls of active or inactive are those of the source. How the source made its calls: active means growth percent below 10; inactive means the rest.
The categories you may choose from are class 1 (active), class 0 (inactive)

>  <Compound>
COc1ccc(C(=O)c2cc(OC)c(OC)c(OC)c2)cc1OC(C)=O

>  <Class Assignment>
class 0

$$$$
>  <Compound>
O=NN1CCCc2cccc(O)c21

>  <Class Assignment>
class 1

$$$$
>  <Compound>
CCCCC1(CCC)C(=O)NC(=S)NC1=O

>  <Class Assignment>
class 0

$$$$

What outcome does the record of this test show for Fc1ccc(C2=CCNCC2)cc1 ?
class 0

// param item: CCNc1nc(Cl)nc(NCC)n1 ; yields the recorded call
class 0

Outcome logged for O=C1Nc2ccccc2C2c3cccn3-c3ccccc3CN12 (centres undefined) in this assay:
class 0

How did this test come out for CCCCN1CCCC[C@@H]1C(=O)N[C@H](C(=O)N(C)[C@H](C[C@@H](OC(C)=O)c1nc(C(=O)NC2CCC(C(=O)OC)CC2)cs1)C(C)C)C(C)C (some centres undefined) ?
class 0

Write down the call the test reported for this compound. Item: O=C(Nc1ccc(O)cc1)C(Cl)(Cl)Cl
class 0

Test call for this compound, please: CC1=C2[C@@H](CC1)[C@]1(C)O[C@@](C(C)C)(C[C@H]1O)[C@H]2OC(=O)C1CC1c1ccccc1 (some centres undefined)
class 0

In this assay, the call recorded for CC(CC1CCCCC1)NCc1ccccc1 (centres undefined) was what?
class 0

What was the test verdict on COc1cc(/C=C/[N+](=O)[O-])cc(OC)c1 ?
class 1

Recorded call for O=C1C2CC=CCC2C(=O)N1SC(Cl)(Cl)Cl (centres undefined) ?
class 0

Call for entry N/C(=N\N=C\c1ccc(-c2ccccc2)cc1)N[N+](=O)[O-] :
class 1

Which outcome was assigned to C#Cc1ccc2c(c1)C(c1ccccc1F)=NCC(=O)N2C in this test?
class 0
